The measurements presented in this section are drawn from patent US12083113B2.

Tested on: human melanoma cell lines (A375, Sk-Mel-28, wm3211)
Assay: Cytotoxicity by MTT colorimetric analysis in human melanoma cell lines
Assay type: cell-based
Test Context: read-out: Cytotoxicity (IC50 from 3 melanoma cell lines)
pIC50: −log10 of the molar value.
Property Label: pIC50

| Molecular String | Obs Value |
| --- | --- |
| N=C(Nc1ccc(CCNCc2cccc(NC(=N)c3cccs3)c2)cc1)c1cccs1 | 5.28 |

---

Test system: A375 cells
Assay: Cytotoxicity in A375 cells
Assay type: cell-based, human
Property Label: IC50 (µM)

| Compound | Assay Target | Obs Value |
| --- | --- | --- |
| N.N.[Cl][Pt][Cl] [cisplatin] | A375 cells | 4.2 |
